Values compiled from patent US8377967B2.

This section presents compounds with their documented log10 of ED50 values.
molecular target: cerebral H1 receptor (Mus musculus, UniProt P70174); construct: the entire brain, except for cerebellum and medulla oblongatae, was rapidly excised; from tissue; host or cells: brain homogenate (without cerebellum and medulla oblongata) of orally dosed ICR male mice; assay: Murine cerebral H1 receptor occupying content (ex vivo); format: in vivo; details: ICR male mouse, oral administration, brain excised after 1 hour, 3H-pyrilamine binding in brain homogenate; larger = lower brain transfer; read-out: ID50 (the source's name)
Sequence (P70174 whole entry): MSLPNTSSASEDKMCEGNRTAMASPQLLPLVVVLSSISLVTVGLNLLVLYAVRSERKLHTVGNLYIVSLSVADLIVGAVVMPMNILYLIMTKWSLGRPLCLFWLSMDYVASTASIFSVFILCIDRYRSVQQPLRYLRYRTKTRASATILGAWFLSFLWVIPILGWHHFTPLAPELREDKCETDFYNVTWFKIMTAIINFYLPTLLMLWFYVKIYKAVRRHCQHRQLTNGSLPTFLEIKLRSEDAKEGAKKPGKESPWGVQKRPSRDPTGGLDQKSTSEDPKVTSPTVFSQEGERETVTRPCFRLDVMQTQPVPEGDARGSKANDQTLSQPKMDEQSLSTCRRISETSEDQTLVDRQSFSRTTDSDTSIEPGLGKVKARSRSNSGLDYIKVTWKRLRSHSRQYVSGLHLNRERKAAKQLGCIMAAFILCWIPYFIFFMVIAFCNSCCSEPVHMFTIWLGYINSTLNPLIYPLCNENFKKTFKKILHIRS
Transform log10 | Measure ED50 | Unit mg/kg

Some compounds with known log10 of ED50 results, for comparison:
Provide one value: measured log10 of ED50 of COC(=O)Cc1ccc2c(c1)C(=C1CCN(CC(C)=O)CC1)c1sccc1CO2.Cl
1.55

Provide one value: measured log10 of ED50 of CN1CCC(=C2c3ccccc3CCc3sc(CNC(N)=O)cc32)CC1
1.53

Provide one value: measured log10 of ED50 of COC(=O)Cc1ccc2c(c1)C(=C1CCN(CCCO)CC1)c1sccc1CO2.Cl
1.82

Provide one value: measured log10 of ED50 of CCOC(=O)Cc1ccc2c(c1)C(=C1CCNCC1)c1sccc1CO2.Cl
1.99

Provide one value: measured log10 of ED50 of CN1CCC(=C2c3ccccc3CCc3cc(C=CC(=O)O)sc32)CC1
0.75

---
Provide one value: measured log10 of ED50 of CN1CCC(=C2c3ccccc3OCc3cc(CC(=O)O)sc32)CC1.Cl
2.31

Provide one value: measured log10 of ED50 of CN1CCC(=C2c3cc(CC(=O)O)ccc3OCc3ccsc32)CC1.Cl
0.97

Provide one value: measured log10 of ED50 of CN1CCC(=C2c3ccccc3CCc3sc(C(C)(C)C(=O)O)cc32)CC1
1.29
